tested on: OVCAR-4 ovarian; assay: NCI-60 one-dose screen, 48 h (100 = growth as untreated, 0 = no growth, -100 = all killed); conditions: 10 µM unless noted
Compounds without any hit were thinned out: in the full panel of roughly 83,000, 20% have a hit.

[
  {
    "Molecule": "CC(=O)OCC1OC(OCC2OC(OC(C)=O)C(OC(C)=O)C(OC(C)=O)C2OC(C)=O)C(OC(C)=O)C(OC(C)=O)C1OC(C)=O (stereo not drawn)",
    "growth, %": 107
  },
  {
    "Molecule": "COc1ccc(OC)c(/C=C2\\Oc3cc(OCCN4CCCC4)ccc3C2=O)c1",
    "growth, %": 98.5
  },
  {
    "Molecule": "COc1cc2c(cc1OC)C1(C)N(CC2)C(=O)OC1(C)C (stereo not drawn)",
    "growth, %": 99.5
  },
  {
    "Molecule": "CC(C)CCC[C@@H](C)[C@H]1CC[C@H]2[C@@H]3CC[C@H]4C/C(=N/O)CC[C@]4(C)[C@H]3CC[C@]12C",
    "growth, %": 119
  },
  {
    "Molecule": "NC(=S)NN=C1CCCCC1",
    "growth, %": 53.6
  },
  {
    "Molecule": "COc1ccccc1OCC(=O)Nc1sc2c(c1C(N)=O)CCC2",
    "growth, %": 83.2
  },
  {
    "Molecule": "COc1cc(C2C3=C(COC3=O)Nc3c2ccc2c3CCCC2)cc2c1OCO2 (stereo not drawn)",
    "growth, %": 38
  },
  {
    "Molecule": "C[N+](C)(C)c1ccc(CC2c3ccccc3-c3ccccc32)cc1",
    "growth, %": 85.2
  },
  {
    "Molecule": "Cc1cc2c(c(=O)o1)C(c1ccc(OC(=O)N3CCOCC3)cc1)C(C#N)=C(N)O2 (stereo not drawn)",
    "growth, %": 109
  },
  {
    "Molecule": "COc1ccc(NC(=O)CSc2nc3ccccc3c(=O)n2Cc2cc(OC)c(OC)c(OC)c2)cc1",
    "growth, %": 82.8
  },
  {
    "Molecule": "CCCCC[C@@H]1Cc2cc(O)c(C(=O)O)c3c2[C@H](C[C@@]2(CCCO2)O3)O1",
    "growth, %": 94.2
  },
  {
    "Molecule": "O=C(Nc1cc(C(F)(F)F)cc(C(F)(F)F)c1)Nc1ccc(OCc2nnc(-c3ccc(Cl)cc3)o2)c(F)c1",
    "growth, %": 24
  },
  {
    "Molecule": "Cc1cc2c(C(C)C)c(O)c(O)c(C=NCCCCCCC(=O)O)c2c(O)c1-c1c(C)cc2c(C(C)C)c(O)c(O)c(C=NCCCCCCC(=O)O)c2c1O",
    "growth, %": 28.2
  },
  {
    "Molecule": "COc1ccc(C2=CC(c3ccc(Oc4ccnc5cc(Cl)ccc45)c(OC)c3)c3c(nc(OC)[nH]c3=O)N2)cc1 (stereo not drawn)",
    "growth, %": 63.9
  },
  {
    "Molecule": "CCC#CC[C@H]1C/C=C2/C(=O)C=C[C@@H]2C/C=C\\CCCC(=O)O1",
    "growth, %": 40.1
  },
  {
    "Molecule": "COc1ccc(OC)c(NC(=O)c2cc(S(=O)(=O)N3CCc4ccccc43)ccc2OC)c1",
    "growth, %": 94.2
  },
  {
    "Molecule": "O=C(c1ccccc1)C(Cl)C(Cl)c1ccccc1 (stereo not drawn)",
    "growth, %": 41.2
  },
  {
    "Molecule": "CC1=C(C#N)C(C)(C)C(C#N)=C(C)N1",
    "growth, %": 99.2
  }
]
